Tested on: 945468-187-T-J2-PDC spheroids viability;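 note: spheroids exposed to compounds for seven days before reading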
Assay: Anticancer human tumor 945468-187-T-J2-PDC patient-derived rectal carcinoma cell line growth inhibition [PI3K]
Settings: second compound 0.1 µM; first compound 1 µM; active compounds read low; spheroids with HUVEC and MSC
Description: Combinatorial screen of targeted agents with the PI3K inhibitors inavolisib, alpelisib, duvelisib, and copanlisib in multi-cell type tumor spheroids A high-throughput screen of multi-cell type tumor spheroids was designed to identify active combinations of targeted small molecules and PI3K pathway inhibitors. […] Compounds. […] If the clinical Cmax for an agent had not been determined, the highest concentration tested was 10 microM. […]
This listing pairs compounds with measured viability, T/C.
Answer format: numeric, % implied, no suffix.

compound="Cn1nccc1Nc1nccc(-c2ccn(C(CO)c3ccc(Cl)c(F)c3)c(=O)c2)n1 (stereo not drawn) + CC(Nc1ccc2c(c1)OCCn1cc(N3C(=O)OCC3C(F)F)nc1-2)C(N)=O" value_kind="viability, T/C" unit_info=% value_measured=111

Dear colleague, I am looking for the recorded viability, T/C of the following compound: Cn1nccc1Nc1nccc(-c2ccn(C(CO)c3ccc(Cl)c(F)c3)c(=O)c2)n1 (stereo not drawn) + COc1c(OCCCN2CCOCC2)ccc2c3n(c(=NC(=O)c4cnc(N)nc4)nc12)CCN3
82.2

So what's the measured viability, T/C for this one? CCN1CCN(Cc2ccc(Nc3ncc(F)c(-c4cc(F)c5nc(C)n(C(C)C)c5c4)n3)nc2)CC1 + CC(Nc1ccc2c(c1)OCCn1cc(N3C(=O)OCC3C(F)F)nc1-2)C(N)=O
59.1
